inhibition listing for selected molecules.
TGT: Serine/threonine-protein kinase DCLK2 (Homo sapiens) (UniProt Q8N568)
Sequence (whole entry): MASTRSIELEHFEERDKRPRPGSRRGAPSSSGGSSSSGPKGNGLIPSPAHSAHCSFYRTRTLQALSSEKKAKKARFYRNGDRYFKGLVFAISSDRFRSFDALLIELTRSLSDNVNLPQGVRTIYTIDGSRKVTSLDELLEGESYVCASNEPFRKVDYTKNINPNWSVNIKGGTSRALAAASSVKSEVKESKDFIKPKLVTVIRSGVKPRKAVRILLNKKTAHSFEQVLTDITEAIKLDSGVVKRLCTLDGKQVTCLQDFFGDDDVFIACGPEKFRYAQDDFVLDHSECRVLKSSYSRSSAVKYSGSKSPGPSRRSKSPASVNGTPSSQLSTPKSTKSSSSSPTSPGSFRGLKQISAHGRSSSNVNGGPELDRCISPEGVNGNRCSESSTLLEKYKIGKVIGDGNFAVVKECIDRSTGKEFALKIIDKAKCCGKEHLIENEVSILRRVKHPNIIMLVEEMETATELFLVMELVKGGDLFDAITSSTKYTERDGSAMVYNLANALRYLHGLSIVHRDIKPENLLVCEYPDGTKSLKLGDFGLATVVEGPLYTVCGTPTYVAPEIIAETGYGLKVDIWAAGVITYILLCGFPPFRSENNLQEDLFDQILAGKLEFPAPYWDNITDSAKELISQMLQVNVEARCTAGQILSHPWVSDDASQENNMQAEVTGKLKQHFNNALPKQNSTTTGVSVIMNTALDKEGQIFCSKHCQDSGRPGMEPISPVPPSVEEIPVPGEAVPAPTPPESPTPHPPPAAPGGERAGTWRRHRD
CONDITION_DETAILS: at 1 µM
Field: numeric (%). Do not append units.

Query: # return recorded inhibition for entry O=C(O[C@H]1CN[C@H](C#Cc2cc3ncnc(Nc4ccc5c(cnn5Cc5ccccc5)c4)c3s2)C1)N1CCOCC1
Response: -1.86

Query: # return recorded inhibition for entry CCS(=O)(=O)c1ccc(OC)c(Nc2ncc(-c3cccc(C(C)=O)c3)o2)c1
Response: -0.78

Query: # return recorded inhibition for entry O=C(O[C@H]1CN[C@H](C#Cc2cc3ncnc(Nc4ccc(OCc5cccc(F)c5)c(Cl)c4)c3s2)C1)N1CCOCC1
Response: 0.57

Query: # return recorded inhibition for entry O=C(O[C@H]1CN[C@H](C#Cc2cc3ncnc(Nc4ccc5c(ccn5Cc5cc(F)ccc5F)c4)c3s2)C1)N1CCOCC1
Response: -1.18

Query: # return recorded inhibition for entry CNC(=O)c1ncccc1Nc1nc(Nc2cc3c(cc2OC)CCCN3C(=O)CN(C)C)nc2[nH]ccc12
Response: 3.04

Query: # return recorded inhibition for entry c1cnn2ncc(-c3ccnc(NCCCN4CCOCC4)n3)c2c1
Response: 1.43

Query: # return recorded inhibition for entry CS(=O)(=O)CCNCc1ccc(-c2ccc3ncnc(Nc4ccc(OCc5cccc(C(F)(F)F)c5)cc4)c3c2)o1
Response: 1.78

Query: # return recorded inhibition for entry CN(c1ccc(NC(=O)NCCN2CCOCC2)cc1)c1ccnc(Nc2ccc(CS(C)(=O)=O)cc2)n1
Response: 0.61

----------
inhibition listing for selected compounds.
TGT: Tyrosine-protein kinase Lck (Homo sapiens) (UniProt P06239)
Sequence (P06239 2-509 limits assumed): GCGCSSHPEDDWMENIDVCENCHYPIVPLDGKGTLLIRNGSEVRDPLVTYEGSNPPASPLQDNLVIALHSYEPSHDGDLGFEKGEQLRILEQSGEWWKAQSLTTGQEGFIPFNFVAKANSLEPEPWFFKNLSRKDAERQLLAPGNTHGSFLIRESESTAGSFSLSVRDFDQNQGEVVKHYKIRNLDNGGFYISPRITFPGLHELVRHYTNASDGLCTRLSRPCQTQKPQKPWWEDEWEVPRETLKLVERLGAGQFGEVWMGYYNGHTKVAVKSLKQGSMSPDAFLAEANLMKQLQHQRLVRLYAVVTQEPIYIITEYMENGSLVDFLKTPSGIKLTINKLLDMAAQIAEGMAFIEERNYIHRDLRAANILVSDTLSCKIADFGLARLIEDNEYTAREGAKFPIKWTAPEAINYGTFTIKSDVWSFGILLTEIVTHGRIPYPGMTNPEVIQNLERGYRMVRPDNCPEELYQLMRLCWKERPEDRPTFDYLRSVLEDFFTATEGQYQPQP
CONDITION_DETAILS: at 0.1 µM
Field: numeric (%). Do not append units.

CHEM_SMILES: CCN1CCC(C(=O)Nc2n[nH]c3nnc(-c4cccc(F)c4F)cc23)CC1
inhibition (%): -0.07

CHEM_SMILES: CN1CCC(n2cnc(-c3ccc(F)cc3)c2-c2ccnc(NCCO)n2)CC1
inhibition (%): 2

CHEM_SMILES: CS(=O)(=O)CCNCc1ccc(-c2ccc3ncnc(Nc4ccc(OCc5ccccc5)cc4)c3c2)o1
inhibition (%): 4.19

Next compound, please.
Query: # return recorded inhibition for entry N#Cc1cccc(Nc2ncc(-c3ccccc3)o2)c1
Response: 2.79
